All values here come from ChEMBL document CHEMBL1139012.

# tested_system: Cytoplasmic dynein 1 heavy chain 1 (Rattus norvegicus, UniProt P38650)
# Sequence (P38650 whole entry, the tested form may be a part): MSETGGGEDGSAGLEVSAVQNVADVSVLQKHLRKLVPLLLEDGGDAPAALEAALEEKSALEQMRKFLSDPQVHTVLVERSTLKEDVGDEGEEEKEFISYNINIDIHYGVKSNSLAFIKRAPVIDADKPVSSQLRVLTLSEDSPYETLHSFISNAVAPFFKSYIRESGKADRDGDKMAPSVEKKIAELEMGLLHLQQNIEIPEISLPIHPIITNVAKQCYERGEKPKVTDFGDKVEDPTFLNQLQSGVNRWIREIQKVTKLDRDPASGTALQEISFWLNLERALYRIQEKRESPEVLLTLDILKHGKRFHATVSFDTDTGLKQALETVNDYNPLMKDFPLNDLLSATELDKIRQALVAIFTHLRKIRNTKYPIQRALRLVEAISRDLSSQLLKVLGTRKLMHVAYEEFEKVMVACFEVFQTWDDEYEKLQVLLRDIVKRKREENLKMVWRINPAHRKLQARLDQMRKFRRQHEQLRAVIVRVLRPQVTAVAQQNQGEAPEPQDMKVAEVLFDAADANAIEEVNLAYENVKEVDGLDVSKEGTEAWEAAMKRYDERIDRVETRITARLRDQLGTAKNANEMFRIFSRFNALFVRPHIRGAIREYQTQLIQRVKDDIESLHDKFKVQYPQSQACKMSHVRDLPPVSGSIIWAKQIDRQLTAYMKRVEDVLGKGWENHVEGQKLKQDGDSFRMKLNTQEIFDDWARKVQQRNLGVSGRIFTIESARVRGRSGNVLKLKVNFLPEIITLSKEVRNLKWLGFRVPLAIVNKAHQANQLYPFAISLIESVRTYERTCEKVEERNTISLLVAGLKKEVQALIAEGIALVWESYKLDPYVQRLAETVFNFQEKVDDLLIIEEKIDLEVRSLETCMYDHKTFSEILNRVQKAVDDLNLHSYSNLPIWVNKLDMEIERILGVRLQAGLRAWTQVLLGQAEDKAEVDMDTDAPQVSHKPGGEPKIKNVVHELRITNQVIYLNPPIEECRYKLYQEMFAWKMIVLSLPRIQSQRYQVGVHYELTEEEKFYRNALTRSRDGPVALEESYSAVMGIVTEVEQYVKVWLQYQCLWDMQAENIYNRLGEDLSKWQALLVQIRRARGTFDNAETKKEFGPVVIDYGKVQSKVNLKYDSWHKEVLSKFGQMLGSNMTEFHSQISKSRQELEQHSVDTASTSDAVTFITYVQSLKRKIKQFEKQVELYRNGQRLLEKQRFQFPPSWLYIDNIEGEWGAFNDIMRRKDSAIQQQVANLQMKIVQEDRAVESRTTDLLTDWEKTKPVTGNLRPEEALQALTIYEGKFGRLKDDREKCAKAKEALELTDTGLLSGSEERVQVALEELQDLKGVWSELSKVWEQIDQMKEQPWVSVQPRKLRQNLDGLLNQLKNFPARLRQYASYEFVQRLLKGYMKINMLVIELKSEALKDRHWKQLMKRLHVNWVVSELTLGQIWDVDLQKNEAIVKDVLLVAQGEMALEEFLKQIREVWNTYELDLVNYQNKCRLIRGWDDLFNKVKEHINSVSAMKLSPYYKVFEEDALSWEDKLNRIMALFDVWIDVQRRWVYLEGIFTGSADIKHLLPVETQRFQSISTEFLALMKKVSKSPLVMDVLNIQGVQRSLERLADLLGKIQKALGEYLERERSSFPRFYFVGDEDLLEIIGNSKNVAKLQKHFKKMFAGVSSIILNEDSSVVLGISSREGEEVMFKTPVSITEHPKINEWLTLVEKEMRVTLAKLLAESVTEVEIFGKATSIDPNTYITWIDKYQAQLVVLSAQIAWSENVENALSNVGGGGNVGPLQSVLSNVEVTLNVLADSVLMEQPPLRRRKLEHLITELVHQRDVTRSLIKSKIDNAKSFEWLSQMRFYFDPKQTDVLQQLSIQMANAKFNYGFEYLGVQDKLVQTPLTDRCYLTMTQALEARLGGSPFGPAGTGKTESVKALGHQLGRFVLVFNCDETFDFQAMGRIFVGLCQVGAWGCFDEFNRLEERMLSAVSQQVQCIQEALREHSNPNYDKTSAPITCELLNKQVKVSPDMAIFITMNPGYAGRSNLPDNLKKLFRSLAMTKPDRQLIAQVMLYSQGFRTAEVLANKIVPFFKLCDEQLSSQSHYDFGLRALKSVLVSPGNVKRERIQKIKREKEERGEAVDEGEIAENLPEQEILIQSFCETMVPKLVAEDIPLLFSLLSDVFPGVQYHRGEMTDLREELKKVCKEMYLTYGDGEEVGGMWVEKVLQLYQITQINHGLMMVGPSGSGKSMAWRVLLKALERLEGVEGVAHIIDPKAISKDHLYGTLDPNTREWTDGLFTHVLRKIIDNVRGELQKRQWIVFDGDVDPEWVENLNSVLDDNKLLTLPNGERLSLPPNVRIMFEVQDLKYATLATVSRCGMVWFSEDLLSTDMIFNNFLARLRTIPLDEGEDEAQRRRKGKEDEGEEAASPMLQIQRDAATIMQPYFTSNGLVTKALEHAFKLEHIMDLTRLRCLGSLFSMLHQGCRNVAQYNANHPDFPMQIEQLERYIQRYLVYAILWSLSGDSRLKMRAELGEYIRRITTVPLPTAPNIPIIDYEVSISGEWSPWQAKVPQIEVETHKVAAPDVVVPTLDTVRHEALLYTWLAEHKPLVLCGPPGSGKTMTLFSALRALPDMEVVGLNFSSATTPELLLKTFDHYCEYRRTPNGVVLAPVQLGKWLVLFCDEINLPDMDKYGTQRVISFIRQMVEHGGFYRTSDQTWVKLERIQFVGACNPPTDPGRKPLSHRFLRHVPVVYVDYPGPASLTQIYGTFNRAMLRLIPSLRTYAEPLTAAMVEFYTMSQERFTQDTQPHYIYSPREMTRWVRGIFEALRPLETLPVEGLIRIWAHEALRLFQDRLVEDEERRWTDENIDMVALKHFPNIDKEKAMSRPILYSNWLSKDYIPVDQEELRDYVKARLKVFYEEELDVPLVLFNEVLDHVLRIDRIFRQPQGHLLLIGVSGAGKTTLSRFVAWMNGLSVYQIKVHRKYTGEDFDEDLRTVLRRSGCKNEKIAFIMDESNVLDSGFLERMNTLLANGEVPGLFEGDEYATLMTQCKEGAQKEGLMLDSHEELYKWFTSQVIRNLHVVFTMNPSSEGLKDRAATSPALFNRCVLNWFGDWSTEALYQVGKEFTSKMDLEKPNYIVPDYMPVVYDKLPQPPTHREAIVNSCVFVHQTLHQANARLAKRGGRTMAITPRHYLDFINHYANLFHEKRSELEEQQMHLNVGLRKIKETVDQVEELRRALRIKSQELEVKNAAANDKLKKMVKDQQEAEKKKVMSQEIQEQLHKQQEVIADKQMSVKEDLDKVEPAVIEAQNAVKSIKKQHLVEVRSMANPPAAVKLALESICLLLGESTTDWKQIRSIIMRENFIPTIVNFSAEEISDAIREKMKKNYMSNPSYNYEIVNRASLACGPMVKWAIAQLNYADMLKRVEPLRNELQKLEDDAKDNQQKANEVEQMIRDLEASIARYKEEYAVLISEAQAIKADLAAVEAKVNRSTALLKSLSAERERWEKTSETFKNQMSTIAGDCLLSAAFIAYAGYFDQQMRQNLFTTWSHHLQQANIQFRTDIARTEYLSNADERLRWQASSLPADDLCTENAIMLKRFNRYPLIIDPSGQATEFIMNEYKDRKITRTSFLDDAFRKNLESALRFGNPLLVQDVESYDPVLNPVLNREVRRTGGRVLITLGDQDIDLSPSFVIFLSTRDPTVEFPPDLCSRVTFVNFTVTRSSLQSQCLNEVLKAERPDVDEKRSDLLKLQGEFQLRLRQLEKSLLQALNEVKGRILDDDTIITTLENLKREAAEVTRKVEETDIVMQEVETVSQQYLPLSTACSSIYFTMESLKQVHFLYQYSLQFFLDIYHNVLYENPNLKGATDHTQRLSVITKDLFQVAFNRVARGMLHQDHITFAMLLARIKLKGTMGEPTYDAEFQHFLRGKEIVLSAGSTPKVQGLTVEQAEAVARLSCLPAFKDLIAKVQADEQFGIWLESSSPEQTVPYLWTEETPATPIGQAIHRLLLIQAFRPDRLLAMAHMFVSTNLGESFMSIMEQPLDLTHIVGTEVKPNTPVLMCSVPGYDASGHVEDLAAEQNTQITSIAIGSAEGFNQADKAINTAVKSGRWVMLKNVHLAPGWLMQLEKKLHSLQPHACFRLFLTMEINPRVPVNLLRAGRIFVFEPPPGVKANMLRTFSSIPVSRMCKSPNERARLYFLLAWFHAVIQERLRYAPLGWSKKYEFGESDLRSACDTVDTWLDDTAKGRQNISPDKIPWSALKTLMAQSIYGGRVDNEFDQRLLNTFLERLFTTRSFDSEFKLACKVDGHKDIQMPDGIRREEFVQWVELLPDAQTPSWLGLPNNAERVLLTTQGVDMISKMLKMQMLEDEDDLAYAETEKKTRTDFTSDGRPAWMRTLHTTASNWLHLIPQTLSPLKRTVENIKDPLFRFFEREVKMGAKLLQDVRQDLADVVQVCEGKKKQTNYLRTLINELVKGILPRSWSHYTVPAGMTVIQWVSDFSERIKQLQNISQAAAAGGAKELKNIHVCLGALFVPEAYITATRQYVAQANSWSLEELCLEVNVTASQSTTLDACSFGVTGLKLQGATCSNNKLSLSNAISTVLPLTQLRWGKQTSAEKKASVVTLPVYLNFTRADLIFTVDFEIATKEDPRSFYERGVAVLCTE
# test_method_notes: Inhibition of MT-stimulated ATPase activity of rat cytoplasmic dynein heavy chain motor domain
Listed below: IC50 values for each entry.

Here `NCCCOc1c(Cl)cc(Cl)cc1C/C(=N/O)C(=O)NCCc1c[nH]c2ccccc12` was tested on Cytoplasmic dynein 1 heavy chain 1 (Rattus norvegicus, UniProt P38650), and its IC50 came to > 50 µM

Here `COC1=C(Br)[C@@H](O)[C@]2(C=C1Br)CC(C(=O)NCCCOc1c(Br)cc(C/C(=N/O)C(=O)NCCc3c[nH]c(N)n3)cc1Br)=NO2` was tested on Cytoplasmic dynein 1 heavy chain 1 (Rattus norvegicus, UniProt P38650), and its IC50 came to 35 µM

Here `CCCCCCCCCCCCCC(=O)NCCCOc1c(Br)cc(C/C(=N/O)C(=O)NCCc2c[nH]c(N)n2)cc1Br` was tested on Cytoplasmic dynein 1 heavy chain 1 (Rattus norvegicus, UniProt P38650), and its IC50 came to > 50 µM

Here `NCCCOc1ccc(C/C(=N/O)C(=O)NCCc2c[nH]c3ccccc23)cc1Br` was tested on Cytoplasmic dynein 1 heavy chain 1 (Rattus norvegicus, UniProt P38650), and its IC50 came to > 50 µM

Here `NCCCOc1c(Br)cc(Br)cc1C/C(=N/O)C(=O)NCCc1ccc(Cl)cc1` was tested on Cytoplasmic dynein 1 heavy chain 1 (Rattus norvegicus, UniProt P38650), and its IC50 came to > 50 µM

Here `NCCCOc1ccc(C/C(=N/O)C(=O)NCCc2ccc(Cl)cc2)cc1Br` was tested on Cytoplasmic dynein 1 heavy chain 1 (Rattus norvegicus, UniProt P38650), and its IC50 came to > 50 µM

Here `NCCCOc1c(Br)cc(C/C(=N/O)C(=O)NCCc2c[nH]c(N)n2)cc1Br` was tested on Cytoplasmic dynein 1 heavy chain 1 (Rattus norvegicus, UniProt P38650), and its IC50 came to 42 µM

Here `NCCCOc1c(Br)cc(Br)cc1C/C(=N/O)C(=O)NCCc1c[nH]c2ccccc12` was tested on Cytoplasmic dynein 1 heavy chain 1 (Rattus norvegicus, UniProt P38650), and its IC50 came to > 50 µM

====

# System: PC-3
# test_method_notes: Antiproliferative activity against human PC3 prostate carcinoma cells by MTS assay
# Assay type: functional
measure_name: GI50 (µM)

1. NCCCOc1c(Cl)cc(Cl)cc1C/C(=N/O)C(=O)NCCc1ccccc1
2. NCCCOc1c(Cl)cc(Cl)cc1C/C(=N/O)C(=O)NCCc1ccc(Cl)cc1
# return whichever of 1 and 2 has the smaller GI50 Write the label of whichever entry you select.
2

====

# Test system: L1210
# test_method_notes: Antiproliferative activity against mouse L1210 leukemia cell line by MTS assay
# Type: functional
measure_name: GI50 (µM)

>>> print(df.to_string())
                                   compound  observed_result
0  CCCCCCCCCCCCCC(=O)NCCCOc1c(Br)cc(C/C(=N/O)C(=O)NCCc2c[nH]c(N)n2)cc1Br [LIPOPUREALIN A]                9
1  NCCCOc1c(Br)cc(Br)cc1C/C(=N/O)C(=O)NCCc1ccc(Cl)cc1              6.3
2  NCCCOc1c(Br)cc(C/C(=N/O)C(=O)NCCc2c[nH]c3ccccc23)cc1Br              5.8
3  NCCCOc1ccc(C/C(=N/O)C(=O)NCCc2ccccc2)cc1Br              6.2
4  COc1ccc(CCNC(=O)/C(Cc2cc(Cl)cc(Cl)c2OCCCN)=N\O)cc1              6.9

====

# System: PC-3
# test_method_notes: Antiproliferative activity against human PC3 prostate carcinoma cells by MTS assay
# Assay type: functional
measure_name: GI50 (µM)

A selection of reference data follows.
molecule	measure_name	observed_result
NCCCOc1ccc(C/C(=N/O)C(=O)NCCc2c[nH]c3ccccc23)cc1Br	GI50	32
C=C/C=C\[C@H](C)[C@H](OC(N)=O)[C@@H](C)[C@H](O)[C@@H](C)C/C(C)=C\[C@H](C)[C@@H](O)[C@@H](C)/C=C\[C@@H](O)C[C@@H]1OC(=O)[C@H](C)[C@@H](O)[C@H]1C [DISERMOLIDE]	GI50	0.052
CCCCCCCCCCCCCC(=O)NCCCOc1c(Br)cc(C/C(=N/O)C(=O)NCCc2c[nH]c(N)n2)cc1Br	GI50	30
COc1ccc(CCNC(=O)/C(Cc2cc(Br)cc(Br)c2OCCCN)=N\O)cc1	GI50	35

P. CC(C)CCCCCCCCCCCC(=O)NCCCOc1c(Br)cc(C/C(=N/O)C(=O)NCCc2c[nH]c(N)n2)cc1Br
Q. NCCCOc1c(Br)cc(Br)cc1C/C(=N/O)C(=O)NCCc1ccc(Cl)cc1
# return whichever of P and Q has the smaller GI50 Write the label of whichever entry you select.
Q
(Q: 15 µM, P: 25 µM)

====

# Test system: L1210
# test_method_notes: Antiproliferative activity against mouse L1210 leukemia cell line by MTS assay
# Format: functional
measure_name: GI50 (µM)

A selection of reference data follows.
compound	observed_result
NCCCOc1ccc(C/C(=N/O)C(=O)NCCc2ccc(Cl)cc2)cc1Br	6.5
NCCCOc1c(Cl)cc(Cl)cc1C/C(=N/O)C(=O)NCCc1c[nH]c2ccccc12	5.8
C=C/C=C\[C@H](C)[C@H](OC(N)=O)[C@@H](C)[C@H](O)[C@@H](C)C/C(C)=C\[C@H](C)[C@@H](O)[C@@H](C)/C=C\[C@@H](O)C[C@@H]1OC(=O)[C@H](C)[C@@H](O)[C@H]1C [DISERMOLIDE]	0.0092

P. NCCCOc1c(Br)cc(Br)cc1C/C(=N/O)C(=O)NCCc1c[nH]c2ccccc12
Q. COc1ccc(CCNC(=O)/C(Cc2ccc(OCCCN)c(Br)c2)=N\O)cc1
R. COC1=C(Br)[C@@H](O)[C@]2(C=C1Br)CC(C(=O)NCCCOc1c(Br)cc(C/C(=N/O)C(=O)NCCc3c[nH]c(N)n3)cc1Br)=NO2
Sort by GI50, descending. To answer, arrange all of the labels according to the requested order.
Q, P, R

a. NCCCOc1c(Br)cc(C/C(=N/O)C(=O)NCCc2ccccc2)cc1Br
b. CC(C)CCCCCCCCCCCC(=O)NCCCOc1c(Br)cc(C/C(=N/O)C(=O)NCCc2c[nH]c(N)n2)cc1Br
# return whichever of a and b has the smaller GI50 Write the label of whichever entry you select.
a
(a: 6.4 µM, b: 12 µM)

====

# System: PC-3
# test_method_notes: Antiproliferative activity against human PC3 prostate carcinoma cells by MTS assay
# Type: functional
measure_name: GI50 (µM)

>>> print(df.to_string())
                                   compound  observed_result
0  NCCCOc1c(Br)cc(Br)cc1C/C(=N/O)C(=O)NCCc1c[nH]c2ccccc12               31
1  NCCCOc1c(Br)cc(C/C(=N/O)C(=O)NCCc2ccc(Cl)cc2)cc1Br               30
2  COc1ccc(CCNC(=O)/C(Cc2cc(Br)c(OCCCN)c(Br)c2)=N\O)cc1               21

1. NCCCOc1c(Br)cc(C/C(=N/O)C(=O)NCCc2c[nH]c3ccccc23)cc1Br
2. COc1ccc(CCNC(=O)/C(Cc2ccc(OCCCN)c(Br)c2)=N\O)cc1
# return whichever of 1 and 2 has the smaller GI50 Write the label of whichever entry you select.
1

I. NCCCOc1c(Br)cc(C/C(=N/O)C(=O)NCCc2ccccc2)cc1Br
II. NCCCOc1c(Br)cc(Br)cc1C/C(=N/O)C(=O)NCCc1ccccc1
Lab note: check whether I or II shows the higher recorded GI50. Write the label of whichever entry you select.
I

a. CCCCCCCCCCCCCCCC(=O)NCCCOc1c(Br)cc(C/C(=N/O)C(=O)NCCc2c[nH]c(N)n2)cc1Br [LIPOPUREALIN C]
b. NCCCOc1c(Cl)cc(Cl)cc1C/C(=N/O)C(=O)NCCc1c[nH]c2ccccc12
# return whichever of a and b has the smaller GI50 Write the label of whichever entry you select.
b

====

# System: L1210
# test_method_notes: Antiproliferative activity against mouse L1210 leukemia cell line by MTS assay
# Format: functional
measure_name: GI50 (µM)

A selection of reference data follows.
In [3]: df
Out[3]:
                                   molecule  observed_result
0  COc1ccc(CCNC(=O)/C(Cc2cc(Br)cc(Br)c2OCCCN)=N\O)cc1              6.2
1  NCCCOc1ccc(C/C(=N/O)C(=O)NCCc2c[nH]c3ccccc23)cc1Br              7.6
2  NCCCOc1c(Br)cc(Br)cc1C/C(=N/O)C(=O)NCCc1ccccc1              6.3
3  NCCCOc1c(Br)cc(C/C(=N/O)C(=O)NCCc2ccc(Cl)cc2)cc1Br              7.8
4  NCCCOc1c(Cl)cc(Cl)cc1C/C(=N/O)C(=O)NCCc1ccccc1              7.5

1. NCCCOc1c(Br)cc(C/C(=N/O)C(=O)NCCc2c[nH]c(N)n2)cc1Br
2. CCCCCCCCCCCCCCCC(=O)NCCCOc1c(Br)cc(C/C(=N/O)C(=O)NCCc2c[nH]c(N)n2)cc1Br
# return whichever of 1 and 2 has the smaller GI50 Write the label of whichever entry you select.
1
(1: 4.7 µM, 2: 9.7 µM)

A. NCCCOc1c(Cl)cc(Cl)cc1C/C(=N/O)C(=O)NCCc1ccc(Cl)cc1
B. COc1ccc(CCNC(=O)/C(Cc2cc(Br)c(OCCCN)c(Br)c2)=N\O)cc1
# return whichever of A and B has the smaller GI50 Write the label of whichever entry you select.
B
(B: 2.8 µM, A: 5.9 µM)
